The measured values listed here are drawn from ChEMBL document CHEMBL1201862.

Target or system: UniProtKB P11712
Sequence (P11712 whole entry): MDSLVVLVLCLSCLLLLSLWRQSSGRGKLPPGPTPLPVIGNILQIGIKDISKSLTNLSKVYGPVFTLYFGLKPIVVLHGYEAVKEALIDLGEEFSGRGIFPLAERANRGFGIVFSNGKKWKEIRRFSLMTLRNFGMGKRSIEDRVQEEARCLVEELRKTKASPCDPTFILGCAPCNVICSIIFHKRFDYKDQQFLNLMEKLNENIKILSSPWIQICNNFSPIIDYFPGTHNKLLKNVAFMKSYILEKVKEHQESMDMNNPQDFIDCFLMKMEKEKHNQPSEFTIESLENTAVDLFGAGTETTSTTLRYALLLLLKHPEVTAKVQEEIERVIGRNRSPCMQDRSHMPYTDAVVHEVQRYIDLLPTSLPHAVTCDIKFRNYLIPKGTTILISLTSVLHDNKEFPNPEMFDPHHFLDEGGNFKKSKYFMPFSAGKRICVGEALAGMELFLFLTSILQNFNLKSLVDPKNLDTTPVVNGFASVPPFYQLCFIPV
Recorded metric: AC50

For the compound `COc1cc(CNC(C)(C)CO)ccc1OCC(=O)Nc1ccc(Br)cc1` , what AC50 is on record? 39.8 µM (inconclusive)

Report AC50 for `Cc1ccc(Sc2c([N+](=O)[O-])ncn2C)cc1` please. 1.58 µM (inconclusive)

So what's the measured AC50 for this one? `Cc1ccc(COn2c(-c3ccc(Cl)cc3)nc3ccc([N+](=O)[O-])cc32)cc1` 8.91 µM (inconclusive)

Entry `Cc1cccc(NC2=NN=C(c3ccc4c(c3)OCCO4)CS2)c1` has what AC50? 5.62 µM (inconclusive)

Query (compound): `CS(=O)(=O)Nc1ccc(C(=O)N2CCN(c3ccccc3)CC2)cc1` ; field requested: AC50 7.94 µM (inconclusive)

Could you share which AC50 value was measured for `COC(=O)[C@@]1(Cc2ccc(OC)cc2)[C@H]2c3cc(C(=O)N(C)C)n(C[C@H](O)CO)c3C[C@H]2CN1C(=O)c1ccccc1` ? 31.6 µM (inconclusive)

Look up AC50 for this compound: `CCCC(=O)Nc1cccc(Oc2nc(C)cc(C)c2C#N)c1` 10 µM (inconclusive)

Fill blank: measured AC50 of the compound `Cn1cc(-c2nc3cncnc3n(CCN)c2=O)c2ccccc21` is ____. 15.8 µM (inconclusive)

Consider the compound shown here: `O=C(C[N+]12CN3CN(CN(C3)C1)C2)c1ccc(-c2ccccc2)cc1` What is its recorded AC50? 3.16 µM (inconclusive)

// returns reported AC50 for input `O=c1c(CCc2ccccc2)nc2cncnc2n1-c1ccccc1` 25.1 µM (inconclusive)

Please look up its AC50: `O=C(c1cccc(F)c1)N1CCC[C@@]2(CCN(Cc3ccncc3)C2)C1` 20 µM (inconclusive)

Could you share which AC50 value was measured for `C#CCSc1nnc(-c2sc(-c3ccccc3)nc2C)n1C` ? 17.8 µM (inconclusive)

Which AC50 is listed for `COc1ccc(CNc2ncnc3ccc(-c4ccccc4C#N)cc23)c(OC)c1` ? 0.794 µM (inconclusive)

So what's the measured AC50 for this one? `N=c1sccn1CC(=O)Nc1cccc(Oc2ccccc2)c1` 20 µM (inconclusive)

Which value of AC50 has been reported for O=C(NC1CCCc2ccccc21)C1CCN(S(=O)(=O)N2CCCCCC2)CC1 (stereo unspecified) in the records? 31.6 µM (inconclusive)

// query AC50 value for entry O=C(NCc1cccnc1)C1COc2ccccc2O1 (stereo unspecified) 20 µM (inconclusive)

Given COc1cc(C2C(C#N)=C(N)N(Nc3ccccc3)C3=C2C(=O)CC(C)(C)C3)ccc1OCc1ccccc1 (stereo unspecified) , state its recorded AC50. 0.794 µM (inconclusive)

Please give the measured AC50 for this compound: `O=c1oc2c(CN3CCOCC3)c(O)ccc2c2ccccc12` 20 µM (inconclusive)

Need AC50, item `CC(=O)O/C(=C1/C[C@H]2[C@@H]3CC=C4C[C@@H](OC(C)=O)CC[C@]4(C)[C@@H]3CC[C@]2(C)C1=O)C(F)(F)F` 3.16 µM (inconclusive)

For the compound shown here, `COC(=O)c1sccc1NC(=O)CN(C)NS(=O)(=O)c1ccc(F)cc1` , give the reported AC50. 28.2 µM (inconclusive)

I would be grateful if you could share the reported AC50 for `COc1ccccc1NC(=O)CSc1nc2ccccc2cc1Cc1ccccc1` . 0.0631 µM (inconclusive)

----------
Target or system: Genome polyprotein (dengue virus type 2)
Sequence (P29990 2492-3391 limits assumed): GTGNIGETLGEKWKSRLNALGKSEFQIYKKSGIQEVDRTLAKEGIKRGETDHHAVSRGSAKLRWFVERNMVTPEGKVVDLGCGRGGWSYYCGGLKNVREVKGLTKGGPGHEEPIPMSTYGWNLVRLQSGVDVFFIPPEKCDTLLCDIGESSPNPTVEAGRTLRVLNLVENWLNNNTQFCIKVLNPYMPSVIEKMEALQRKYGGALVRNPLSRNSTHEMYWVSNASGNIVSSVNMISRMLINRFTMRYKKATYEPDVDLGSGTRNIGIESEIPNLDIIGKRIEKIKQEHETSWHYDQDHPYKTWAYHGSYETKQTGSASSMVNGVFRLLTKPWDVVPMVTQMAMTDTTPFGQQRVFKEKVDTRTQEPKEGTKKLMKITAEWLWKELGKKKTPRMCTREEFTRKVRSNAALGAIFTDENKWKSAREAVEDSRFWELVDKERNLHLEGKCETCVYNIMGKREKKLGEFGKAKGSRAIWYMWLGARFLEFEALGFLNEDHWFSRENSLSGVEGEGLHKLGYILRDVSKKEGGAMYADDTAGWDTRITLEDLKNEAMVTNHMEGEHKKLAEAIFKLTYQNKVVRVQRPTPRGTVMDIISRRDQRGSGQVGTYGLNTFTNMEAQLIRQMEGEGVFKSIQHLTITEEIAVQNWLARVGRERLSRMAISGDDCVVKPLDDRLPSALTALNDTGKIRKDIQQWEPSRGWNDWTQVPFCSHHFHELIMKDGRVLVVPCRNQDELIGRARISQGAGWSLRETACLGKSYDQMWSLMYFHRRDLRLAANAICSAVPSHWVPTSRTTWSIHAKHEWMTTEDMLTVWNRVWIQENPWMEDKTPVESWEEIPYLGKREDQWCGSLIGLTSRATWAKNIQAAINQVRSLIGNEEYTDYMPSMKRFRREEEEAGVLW
Method summary: flavivirus cap methylation enzyme inhibition – biochemical, confirmation dose response, primary screen (AID 588689)
Format: functional
Calls of active or inactive are those of the source.
Assignment: determine reported IC50 for the given compounds.

Give its IC50 value. Item: `C#CCOc1c(Br)cc(/C=C2/C(=O)ON=C2C)cc1OC` > 100 µM (active)

Any idea what its IC50 is? The compound is `O=C(O)c1ccc2c(c1)C(=O)N(c1ccc(/C=C/C(=O)c3ccccc3)cc1)C2=O` 56.7 µM (active)

Please report the recorded IC50 for Cc1ccc(/C=C2/C(=O)NC(=O)N(CC3CCCO3)C2=O)s1 (centres undefined) . > 100 µM (active)

So what's the measured IC50 for this one? `O=C1NN(c2ccccc2)C(=O)/C1=C\c1cccc(OC(=O)c2cccs2)c1` 21.2 µM (active)

----------
Can you tell me AC50 for the items I'm about to list?

Cytochrome P450 2D6 (Homo sapiens, UniProt P10635) / AC50 / CCN(CC)CCNC(=O)c1cc(Br)c(N)cc1OC [BROMOPRIDE] : value? 5.01 µM (inconclusive)

Form: Entry = O=C1c2ccccc2CCC12N=NCC2c1ccc(Cl)cc1 (stereo unspecified) | System = Cytochrome P450 2D6 (Homo sapiens, UniProt P10635) | AC50 = ____ 28.2 µM (inconclusive)

Query for Cytochrome P450 2D6 (Homo sapiens, UniProt P10635): what AC50 does the record show for `O=C(c1nn(Cc2ccccc2)c(=O)c2ccccc12)N1CCN(C/C=C/c2ccccc2)CC1` ? 17.8 µM (inconclusive)

Identify the measured AC50 of `O=c1c(CCc2ccccc2)nc2cncnc2n1-c1ccccc1` for Cytochrome P450 2D6 (Homo sapiens, UniProt P10635). 25.1 µM (inconclusive)

Give recorded AC50 with Cytochrome P450 2D6 (Homo sapiens, UniProt P10635) for the following molecule: `CCOCc1cnc(C)nc1NCC(=O)c1c(C)[nH]c2ccccc12` 12.6 µM (inconclusive)

Please tell me: AC50 of `N#C/C(=C\c1ccc(O)c(O)c1)C(=O)Nc1ccccc1` , system Cytochrome P450 2D6 (Homo sapiens, UniProt P10635)? 39.8 µM (inconclusive)

Under Cytochrome P450 2D6 (Homo sapiens, UniProt P10635): AC50 value of `COCC(=O)N1CCC2(CCCN(Cc3ccncc3)C2)CC1` ? 15.8 µM (inconclusive)

Tell me reported AC50 for Cc1cc([N+](=O)[O-])ccc1-c1ccc(C2Nc3ccccc3C(=O)N2O)o1 (stereo unspecified) , tested with Cytochrome P450 2D6 (Homo sapiens, UniProt P10635). 20 µM (inconclusive)

Given the entry `FC(F)(F)c1nc2nc(Cl)c(Cl)nc2n1CCCN1CCOCC1` , what AC50 was observed with Cytochrome P450 2D6 (Homo sapiens, UniProt P10635)? 3.98 µM (inconclusive)

AC50 of `O=C(c1cccc(F)c1)N1CCC[C@@]2(CCN(Cc3ccncc3)C2)C1` on Cytochrome P450 2D6 (Homo sapiens, UniProt P10635)? 25.1 µM (inconclusive)

What value of AC50 on Cytochrome P450 2D6 (Homo sapiens, UniProt P10635) does CCc1c2c(nc3cccc(OC)c13)OC(CC)C2 (stereo unspecified) have? 39.8 µM (inconclusive)

----------
Recorded metric: IC50

Please provide the recorded IC50 for `O=C1C(Cl)=C(N2CCN(C/C=C/c3ccccc3)CC2)C(=O)N1c1cccc(C(F)(F)F)c1` , tested on Glyceraldehyde-3-phosphate dehydrogenase (Homo sapiens, UniProt P04406). > 50 µM (inconclusive)

Recorded IC50 for `O=C1C(Cl)=C(N2CCN(CCO)CC2)C(=O)N1c1ccc(Cl)nc1` with Glyceraldehyde-3-phosphate dehydrogenase (Homo sapiens, UniProt P04406), please? > 50 µM (inconclusive)

Can you look up IC50 on Glyceraldehyde-3-phosphate dehydrogenase (Homo sapiens, UniProt P04406) for `COc1cccc(N2CCN(C3=C(Cl)C(=O)N(c4cccc(C)c4)C3=O)CC2)c1` ? > 50 µM (inconclusive)

API: value(readout=IC50, system=Glyceraldehyde-3-phosphate dehydrogenase (Homo sapiens, UniProt P04406)) for record COc1ccc2c(c1)C1C=CCC1C(C(=O)O)N2 (stereo unspecified) > 100 µM (not active)

Can you look up IC50 on Glyceraldehyde-3-phosphate dehydrogenase (Homo sapiens, UniProt P04406) for `COc1ccccc1-c1nc(SCc2ccccc2F)n[nH]1` ? > 100 µM (not active)

Please tell me: IC50 of `O=C(O)[C@@H](O)c1ccccc1` , system Glyceraldehyde-3-phosphate dehydrogenase (Homo sapiens, UniProt P04406)? > 100 µM (not active)

----------
Target or system: Aminopeptidase N (Plasmodium falciparum FcB1/Columbia)
Sequence (O96935 whole entry): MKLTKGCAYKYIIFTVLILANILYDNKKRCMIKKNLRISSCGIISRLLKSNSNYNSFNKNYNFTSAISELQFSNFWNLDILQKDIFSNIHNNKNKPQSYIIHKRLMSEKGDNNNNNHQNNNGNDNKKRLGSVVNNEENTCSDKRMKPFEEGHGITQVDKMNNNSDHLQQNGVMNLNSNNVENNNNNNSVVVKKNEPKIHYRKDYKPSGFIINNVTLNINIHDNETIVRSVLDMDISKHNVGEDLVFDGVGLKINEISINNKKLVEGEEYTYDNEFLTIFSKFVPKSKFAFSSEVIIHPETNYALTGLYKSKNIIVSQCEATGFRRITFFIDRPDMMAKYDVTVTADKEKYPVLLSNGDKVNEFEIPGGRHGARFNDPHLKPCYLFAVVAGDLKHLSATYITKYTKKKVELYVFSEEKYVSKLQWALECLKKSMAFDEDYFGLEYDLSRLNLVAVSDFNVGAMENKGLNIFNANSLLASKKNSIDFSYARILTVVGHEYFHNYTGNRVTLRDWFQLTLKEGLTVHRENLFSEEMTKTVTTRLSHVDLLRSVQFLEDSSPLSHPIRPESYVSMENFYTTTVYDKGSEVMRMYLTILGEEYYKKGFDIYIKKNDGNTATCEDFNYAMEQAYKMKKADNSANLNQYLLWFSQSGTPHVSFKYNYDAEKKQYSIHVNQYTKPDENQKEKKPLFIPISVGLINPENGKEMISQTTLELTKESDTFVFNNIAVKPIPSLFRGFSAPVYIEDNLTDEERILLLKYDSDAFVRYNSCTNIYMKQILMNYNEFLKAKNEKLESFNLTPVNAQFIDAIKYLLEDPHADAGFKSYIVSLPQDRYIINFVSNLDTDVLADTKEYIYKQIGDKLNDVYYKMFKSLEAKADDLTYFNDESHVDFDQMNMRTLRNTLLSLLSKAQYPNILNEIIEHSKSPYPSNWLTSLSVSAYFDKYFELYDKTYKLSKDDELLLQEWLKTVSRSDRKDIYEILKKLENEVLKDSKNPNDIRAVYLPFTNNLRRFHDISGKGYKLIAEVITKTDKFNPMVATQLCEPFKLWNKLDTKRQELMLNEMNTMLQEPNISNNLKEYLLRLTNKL
Method summary: malaria alanyl aminopeptidase activity blockers – biochemical, fluorogenic H-Leu-NHMec substrate, 1536-well (AID 1445)
Set-up: species or system Plasmodium falciparum 3D7, 3D7
The source made the active and inactive calls.
Recorded metric: IC50

GET /values?readout=IC50&item= Cc1ccc(-c2n[nH]c3c2C(c2ccccc2)N(c2ccc(C(=O)O)cc2)C3=O)cc1 (stereo not given) 30.4 µM (active)

Given the entry `Cn1cccc1/C=C1\SC(=S)N(NC(=O)c2ccccc2O)C1=O` , report its measured IC50. 44.6 µM (active)

Consider the compound O=C(O)c1ccc2c(c1)C1C=CCC1C(c1cc3c(cc1Br)OCO3)N2 (stereo not given) and give its measured IC50. 11 µM (active)

# query: IC50 of entry COc1ccc(OC)c(NC(=O)C2C3C=CC(C3)C2C(=O)NCc2ccccn2)c1 (stereo not given) 89.5 µM (active)

Look up IC50: `Cc1ccc(S(=O)(=O)CCSc2cccc(C(=O)Nc3ccccc3C(=O)O)c2)cc1` 34.3 µM (active)
